Target or system: κ opioid receptor (Homo sapiens (Human))
Test details: κ-opioid receptor [35S]GTPγS functional assay
Format: biochemical
Cond: κ GTP EC50; read-out: GTPγS κ EC50
Test readout: EC50 (nM)
Number only, in nM; omit the unit.

COc1ccc2c(c1)[C@]1(CC(N)=O)CCN(CC3CC3)[C@H](C2)[C@@H]1CO [Compound 22] | 2180
CN(C)C(=O)CCC[C@]12CCN(CC3CC3)[C@H](Cc3ccc(O)cc31)/C2=C\C(=O)O [Compound 12] | 1000
O=C(O)CCC[C@]12CCN(CC3CC3)[C@H](Cc3ccc(O)cc31)[C@@H]2CC(=O)O [Compound 10] | 275

I would be grateful if you could share the reported EC50 for O=C(O)/C=C1\[C@H]2Cc3ccc(O)cc3[C@]1(CCCC(=O)O)CCN2CC1CC1 [Compound 13] .
555
